Ki: recorded values
experimental.target: LRRK2 (Homo sapiens, UniProt Q5S007, G2019S)
Construct: purchased Invitrogen PV4882 (lot 567054A)
Sequence (Q5S007 whole entry G2019S): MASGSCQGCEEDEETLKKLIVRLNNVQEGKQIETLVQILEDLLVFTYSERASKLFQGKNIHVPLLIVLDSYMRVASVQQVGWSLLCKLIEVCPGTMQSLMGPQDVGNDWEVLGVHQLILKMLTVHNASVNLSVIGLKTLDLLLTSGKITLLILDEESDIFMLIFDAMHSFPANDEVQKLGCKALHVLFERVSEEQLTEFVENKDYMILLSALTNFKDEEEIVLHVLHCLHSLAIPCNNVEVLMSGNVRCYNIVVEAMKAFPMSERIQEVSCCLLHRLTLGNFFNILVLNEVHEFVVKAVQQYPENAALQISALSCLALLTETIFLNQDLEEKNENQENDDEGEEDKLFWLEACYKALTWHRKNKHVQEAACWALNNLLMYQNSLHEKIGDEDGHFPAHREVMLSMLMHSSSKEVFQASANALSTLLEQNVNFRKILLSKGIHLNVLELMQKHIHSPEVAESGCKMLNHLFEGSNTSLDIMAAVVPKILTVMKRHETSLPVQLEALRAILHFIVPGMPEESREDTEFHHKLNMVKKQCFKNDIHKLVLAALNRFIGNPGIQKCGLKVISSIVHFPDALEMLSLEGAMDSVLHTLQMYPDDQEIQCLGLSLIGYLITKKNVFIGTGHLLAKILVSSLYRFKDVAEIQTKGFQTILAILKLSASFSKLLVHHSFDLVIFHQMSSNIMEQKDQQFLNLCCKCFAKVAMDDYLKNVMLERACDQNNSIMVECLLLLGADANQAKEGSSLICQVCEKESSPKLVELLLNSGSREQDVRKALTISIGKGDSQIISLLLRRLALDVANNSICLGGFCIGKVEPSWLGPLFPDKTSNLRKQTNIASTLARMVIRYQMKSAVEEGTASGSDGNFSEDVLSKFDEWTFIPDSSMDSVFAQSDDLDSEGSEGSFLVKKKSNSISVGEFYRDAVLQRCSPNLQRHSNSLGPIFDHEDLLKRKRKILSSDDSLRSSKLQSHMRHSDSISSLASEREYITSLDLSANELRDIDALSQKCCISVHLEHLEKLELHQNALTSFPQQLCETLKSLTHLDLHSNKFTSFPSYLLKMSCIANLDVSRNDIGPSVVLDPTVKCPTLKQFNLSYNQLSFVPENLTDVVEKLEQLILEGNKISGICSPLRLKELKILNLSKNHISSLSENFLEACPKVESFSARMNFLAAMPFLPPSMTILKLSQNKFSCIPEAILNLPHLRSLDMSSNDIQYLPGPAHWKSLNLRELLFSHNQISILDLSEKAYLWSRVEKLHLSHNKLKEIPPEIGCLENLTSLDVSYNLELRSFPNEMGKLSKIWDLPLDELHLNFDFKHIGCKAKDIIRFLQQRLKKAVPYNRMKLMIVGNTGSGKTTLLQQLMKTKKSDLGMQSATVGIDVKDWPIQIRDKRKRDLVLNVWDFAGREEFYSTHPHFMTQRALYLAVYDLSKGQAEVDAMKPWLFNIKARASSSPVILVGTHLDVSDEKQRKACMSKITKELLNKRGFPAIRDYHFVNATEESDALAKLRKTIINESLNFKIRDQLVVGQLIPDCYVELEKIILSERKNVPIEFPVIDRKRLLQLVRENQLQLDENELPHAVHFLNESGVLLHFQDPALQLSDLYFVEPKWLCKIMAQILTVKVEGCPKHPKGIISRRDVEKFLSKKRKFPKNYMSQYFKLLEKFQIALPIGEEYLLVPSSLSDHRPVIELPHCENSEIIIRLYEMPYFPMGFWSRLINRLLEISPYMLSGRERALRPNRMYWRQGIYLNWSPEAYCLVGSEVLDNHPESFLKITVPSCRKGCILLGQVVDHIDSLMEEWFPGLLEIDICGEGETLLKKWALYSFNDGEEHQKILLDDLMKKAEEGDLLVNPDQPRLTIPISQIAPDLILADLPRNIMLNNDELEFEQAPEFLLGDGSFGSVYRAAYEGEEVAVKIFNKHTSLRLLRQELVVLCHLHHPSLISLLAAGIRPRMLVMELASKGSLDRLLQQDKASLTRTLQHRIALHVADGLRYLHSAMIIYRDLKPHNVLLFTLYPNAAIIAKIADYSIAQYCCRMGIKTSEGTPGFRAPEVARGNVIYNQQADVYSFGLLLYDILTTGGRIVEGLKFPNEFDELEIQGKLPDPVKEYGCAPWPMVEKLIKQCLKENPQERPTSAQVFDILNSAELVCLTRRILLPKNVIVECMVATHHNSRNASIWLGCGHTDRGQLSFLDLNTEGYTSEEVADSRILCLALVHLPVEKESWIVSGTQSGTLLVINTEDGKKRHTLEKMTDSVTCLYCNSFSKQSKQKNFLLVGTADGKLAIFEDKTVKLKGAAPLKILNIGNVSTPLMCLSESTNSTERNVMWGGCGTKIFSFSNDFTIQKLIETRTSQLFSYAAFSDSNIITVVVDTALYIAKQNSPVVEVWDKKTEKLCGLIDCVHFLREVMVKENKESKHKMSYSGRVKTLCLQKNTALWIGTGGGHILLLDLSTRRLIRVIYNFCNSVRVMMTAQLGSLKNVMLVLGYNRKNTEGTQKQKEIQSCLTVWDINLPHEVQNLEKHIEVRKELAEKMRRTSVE
experimental.details: In Vitro LRRK2 Assay (LabChip 3000, fluorescently-labeled peptide substrate, ATP)
Format: biochemical
run.parameters: read-out: LRRK2 Ki (KI), Table 8

Recorded results for 2 molecules are shown here.
| molecule | Ki |
| --- | --- |
| CNc1nc(Nc2cn(C(C)(C)c3nnc(C)o3)nc2C)ncc1C(F)(F)F | 11.7 nM |
| CNc1nc(Nc2cn(Cc3cccnn3)nc2C)ncc1C(F)(F)F | 9.3 nM |

Req: Answer briefly: Ki recorded on LRRK2 (Homo sapiens, UniProt Q5S007, G2019S) for CCNc1nc(Nc2cn(C3CCN(C4COC4)CC3F)nc2C)ncc1C(F)(F)F (stereo not drawn)
Resp: 0.3 nM

Req: Answer briefly: Ki recorded on LRRK2 (Homo sapiens, UniProt Q5S007, G2019S) for CNc1nc(Nc2cnn(C3COC3)c2Cl)ncc1C(F)(F)F
Resp: 9.5 nM

Req: Answer briefly: Ki recorded on LRRK2 (Homo sapiens, UniProt Q5S007, G2019S) for CNc1nc(Nc2cnn(C)c2C(C)C)ncc1C(F)(F)F
Resp: 14 nM

Req: Answer briefly: Ki recorded on LRRK2 (Homo sapiens, UniProt Q5S007, G2019S) for CNc1nc(Nc2cn(C(C)(C)c3cnn(C)c3)nc2C)ncc1C(F)(F)F
Resp: 0.3 nM

Req: Answer briefly: Ki recorded on LRRK2 (Homo sapiens, UniProt Q5S007, G2019S) for CNc1nc(Nc2cn(C(C)(C)c3ccn(C)n3)nc2C)ncc1C(F)(F)F
Resp: 115 nM

Req: Answer briefly: Ki recorded on LRRK2 (Homo sapiens, UniProt Q5S007, G2019S) for CNc1nc(Nc2cn(C3CCN(CC(F)(F)F)CC3)nc2C)ncc1C(F)(F)F
Resp: 46 nM

Req: Answer briefly: Ki recorded on LRRK2 (Homo sapiens, UniProt Q5S007, G2019S) for CCCn1ncc(Nc2ncc(Br)c(NC)n2)c1C
Resp: 5.7 nM

Req: Answer briefly: Ki recorded on LRRK2 (Homo sapiens, UniProt Q5S007, G2019S) for CCNc1nc(Nc2cn(C3CCN(C(=O)C4CC4)CC3)nc2C)ncc1C(F)(F)F
Resp: 0.6 nM

Req: Answer briefly: Ki recorded on LRRK2 (Homo sapiens, UniProt Q5S007, G2019S) for CNc1nc(Nc2cnn([C@H](C)COC)c2C)ncc1C(F)(F)F [Example 205]
Resp: 19 nM

Req: Answer briefly: Ki recorded on LRRK2 (Homo sapiens, UniProt Q5S007, G2019S) for CNc1nc(Nc2cn([C@@H]3CCN(C)C3)nc2C)ncc1C(F)(F)F
Resp: 61 nM

Req: Answer briefly: Ki recorded on LRRK2 (Homo sapiens, UniProt Q5S007, G2019S) for Cc1c(Nc2ncc(C(F)(F)F)c(NCC3CCOCC3)n2)cnn1C
Resp: 9.6 nM

====

experimental.target: LRRK2 (Homo sapiens, UniProt Q5S007, G2019S)
Construct: purchased Invitrogen PV4882 (lot 567054A)
experimental.details: In Vitro LRRK2 Assay (LabChip 3000, fluorescently-labeled peptide substrate, ATP)
Assay type: biochemical
run.parameters: read-out: LRRK2 Ki (KI), Table 8
Label satisfied when Ki < 2 nM; otherwise not satisfied.

| compound | group.label |
| --- | --- |
| CCNc1nc(Nc2cn(C3COC3)nc2C)ncc1C(F)(F)F | satisfied |
| CCNc1nc(Nc2cnn(C3CCN(C(=O)C(C)C)CC3)c2C)ncc1C(F)(F)F [Example 181] | satisfied |
| CNc1nc(Nc2cn(Cc3ccn(C)n3)nc2C)ncc1C(F)(F)F | not satisfied |
| CNc1nc(Nc2cnn(-c3ccc(Cl)cc3)c2C)ncc1Br | not satisfied |

Req: Does this compound meet the criterion Ki < 2 nM? CNc1nc(Nc2cn([C@H]3CCN(C4COC4)C3)nc2C)ncc1C(F)(F)F
Resp: not satisfied

====

experimental.target: LRRK2 (Homo sapiens, UniProt Q5S007, G2019S)
Construct: purchased Invitrogen PV4882 (lot 567054A)
experimental.details: In Vitro LRRK2 Assay (LabChip 3000, fluorescently-labeled peptide substrate, ATP)
Assay type: biochemical
run.parameters: read-out: LRRK2 Ki (KI), Table 7
Ki: recorded values
Please append the unit to your numeric answer.

| compound | Ki |
| --- | --- |
| COc1nc(Nc2cn(-c3ccccc3)nc2C)ncc1C(F)(F)F [Example 77] | 1.6 nM |
| COc1nc(Nc2cnn(C3CCOCC3)c2C)ncc1Cl [Example 80] | 66.3 nM |
| COc1nc(Nc2cc(C3CC3)nn2C)ncc1Cl [Example 39] | 59 nM |

Req: In one line, give reported Ki of the entry COc1nc(Nc2cn(C3CCN(C(=O)C4(C)CC4)CC3)nc2C)ncc1Cl [Example 66] .
Resp: 66 nM

Req: In one line, give reported Ki of the entry CNc1nc(Nc2cnn(C)c2OC)ncc1C(F)(F)F [Example 84] .
Resp: 74.2 nM

Req: In one line, give reported Ki of the entry Cc1c(Nc2ncc(Cl)c(OC3CCOCC3)n2)cnn1C [Example 9] .
Resp: 39 nM

Req: In one line, give reported Ki of the entry COc1nc(Nc2cn(C)nc2C)ncc1Cl [Example 15] .
Resp: 14.4 nM

====

log10(Ki): recorded values
experimental.target: LRRK2 (Homo sapiens, UniProt Q5S007, G2019S)
Construct: purchased Invitrogen PV4882 (lot 567054A)
experimental.details: In Vitro LRRK2 Assay (LabChip 3000, fluorescently-labeled peptide substrate, ATP)
Type: biochemical
run.parameters: Table 10; LRRK2 Ki (micromolar); read-out: LRRK2 Ki (KI)
All values: base-10 log of Ki in nM.

Recorded results for 4 compounds are shown here.
| structure.smiles | experimental.target | experimental.result |
| --- | --- | --- |
| CNc1nc(Nc2cnn(C(C)(C)C(=O)NCC3CC3)c2C)ncc1C(F)(F)F | LRRK2 (Homo sapiens, UniProt Q5S007, G2019S) | 0.95 |
| CNc1nc(Nc2cnn([C@H](C)C#N)c2C)ncc1C(F)(F)F | LRRK2 (Homo sapiens, UniProt Q5S007, G2019S) | 0.20 |
| CNc1nc(Nc2cn(CC(C)(C)C#N)nc2C)ncc1C(F)(F)F | LRRK2 (Homo sapiens, UniProt Q5S007, G2019S) | 0.45 |
| CNc1nc(Nc2cn([C@@H](C)C(=O)N(C)C)nc2C)ncc1C(F)(F)F | LRRK2 (Homo sapiens, UniProt Q5S007, G2019S) | 1.48 |

Next compound, log10(Ki) to be filled in.
Req: In one line, give reported log10(Ki) of the entry CNc1nc(Nc2cnn([C@@H](C)C#N)c2C)ncc1C(F)(F)F .
Resp: 0.98

====

experimental.target: LRRK2 (Homo sapiens, UniProt Q5S007, G2019S)
Construct: purchased Invitrogen PV4882 (lot 567054A)
experimental.details: In Vitro LRRK2 Assay (LabChip 3000, fluorescently-labeled peptide substrate, ATP)
Format: biochemical
run.parameters: read-out: LRRK2 Ki (KI), Table 8
pKi: −log10 of the molar value.
Tag: rule met if measured pKi is not below 8, rule not met if it is.

| compound | group.label |
| --- | --- |
| Cc1nc(Nc2cn(-c3ccc(S(C)(=O)=O)cc3)nc2C)ncc1Cl | rule not met |
| CCNc1nc(Nc2cnn(-c3ccc(C#N)cc3)c2C)ncc1C(F)(F)F | rule met |
| CNc1nc(Nc2cnn(C)c2C#N)ncc1C(F)(F)F | rule met |

Switching to the query record.
Req: Kindly determine if pKi recorded for CNc1nc(Nc2cnn(C)c2CF)ncc1C(F)(F)F is above or exactly 8.
Resp: rule not met

====

experimental.target: LRRK2 (Homo sapiens, UniProt Q5S007, G2019S)
Construct: purchased Invitrogen PV4882 (lot 567054A)
experimental.details: In Vitro LRRK2 Assay (LabChip 3000, fluorescently-labeled peptide substrate, ATP)
Format: biochemical
run.parameters: read-out: LRRK2 Ki (KI), Table 8
Note that class boundaries on Ki are Low (below 2 nM), Mid (2 nM to below 7 nM), High (7 nM or more)

| compound | group.label |
| --- | --- |
| CCNc1nc(Nc2cnn(C3CCN(C(C)=O)CC3)c2C)ncc1C(F)(F)F | Low |
| CCS(=O)(=O)n1cc(Nc2ncc(C(F)(F)F)c(NC)n2)c(C)n1 | Mid |
| CCC(C)S(=O)(=O)n1ncc(Nc2ncc(C(F)(F)F)c(NC)n2)c1C (centres unmarked) | Mid |

Req: Tag the class for CCNc1nc(Nc2cnn(C3CCN(C(=O)C(C)C)CC3)c2C)ncc1C(F)(F)F [Example 267]
Resp: Low

Req: Tag the class for CCNc1nc(Nc2cn(C3CCN(C)CC3)nc2C)ncc1C(F)(F)F
Resp: High

Req: Tag the class for CNc1nc(Nc2cn(C3CN(CC(F)(F)F)C3)nc2C)ncc1C(F)(F)F
Resp: High

Req: Tag the class for CCNc1nc(Nc2cn(S(=O)(=O)CC)nc2C)ncc1C(F)(F)F
Resp: Low

Req: Tag the class for CNC(=O)C(C)(C)n1ncc(Nc2ncc(C(F)(F)F)c(NC)n2)c1Cl
Resp: High

Req: Tag the class for CCNc1nc(Nc2cnn(CCOC)c2C)ncc1C(F)(F)F
Resp: Low

Req: Tag the class for CNc1nc(Nc2cnn(C3CCN(CCF)CC3)c2C)ncc1C(F)(F)F
Resp: Mid
